- target_system: human KDR (VEGFR2) on cells (human, UniProt P35968 20-1356); also: test concentration or dose not given here
- Sequence (P35968 20-1356): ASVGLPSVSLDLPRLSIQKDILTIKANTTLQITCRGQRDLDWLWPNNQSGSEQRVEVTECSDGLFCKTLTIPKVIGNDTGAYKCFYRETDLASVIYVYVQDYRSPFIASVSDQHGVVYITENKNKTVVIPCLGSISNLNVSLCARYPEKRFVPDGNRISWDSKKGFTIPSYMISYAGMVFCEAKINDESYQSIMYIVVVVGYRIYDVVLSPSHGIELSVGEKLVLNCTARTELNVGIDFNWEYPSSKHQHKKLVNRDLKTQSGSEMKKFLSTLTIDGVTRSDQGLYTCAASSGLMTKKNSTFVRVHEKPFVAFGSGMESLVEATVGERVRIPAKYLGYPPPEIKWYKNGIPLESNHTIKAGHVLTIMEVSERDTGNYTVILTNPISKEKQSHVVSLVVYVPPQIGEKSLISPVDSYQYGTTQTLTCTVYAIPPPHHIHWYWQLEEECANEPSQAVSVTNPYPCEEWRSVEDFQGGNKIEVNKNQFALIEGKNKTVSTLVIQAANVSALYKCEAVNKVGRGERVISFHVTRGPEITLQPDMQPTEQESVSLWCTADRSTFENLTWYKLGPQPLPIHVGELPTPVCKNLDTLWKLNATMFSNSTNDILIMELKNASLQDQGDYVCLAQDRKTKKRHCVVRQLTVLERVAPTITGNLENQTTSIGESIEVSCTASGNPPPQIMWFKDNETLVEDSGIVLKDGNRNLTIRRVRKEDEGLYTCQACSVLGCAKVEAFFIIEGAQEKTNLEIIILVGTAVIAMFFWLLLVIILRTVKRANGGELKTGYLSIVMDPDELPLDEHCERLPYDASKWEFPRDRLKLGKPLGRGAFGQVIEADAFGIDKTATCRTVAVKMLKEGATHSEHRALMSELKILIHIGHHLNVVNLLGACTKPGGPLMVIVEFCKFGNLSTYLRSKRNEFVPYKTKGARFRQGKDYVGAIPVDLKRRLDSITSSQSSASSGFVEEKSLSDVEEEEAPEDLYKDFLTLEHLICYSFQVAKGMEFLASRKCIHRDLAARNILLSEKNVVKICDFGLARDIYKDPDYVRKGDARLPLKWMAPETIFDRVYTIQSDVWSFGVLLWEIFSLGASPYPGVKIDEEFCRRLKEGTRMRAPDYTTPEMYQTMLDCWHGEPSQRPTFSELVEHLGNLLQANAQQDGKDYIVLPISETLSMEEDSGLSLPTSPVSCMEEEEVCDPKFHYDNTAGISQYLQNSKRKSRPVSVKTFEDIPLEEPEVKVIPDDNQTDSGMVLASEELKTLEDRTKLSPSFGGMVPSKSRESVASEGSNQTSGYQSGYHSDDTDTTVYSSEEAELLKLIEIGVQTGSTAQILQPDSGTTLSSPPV
- procedure_text: cell-based or functional assay
# % Inhibition of VEGF165-mediated pTyr Activity, Average annotations

binder: anti-KDR monoclonal antibody 29H3 (antibody, V domains shown, Fully human mAb from XenoMouse (IgG2 or IgG4 strain); hybridoma supernatant) VH: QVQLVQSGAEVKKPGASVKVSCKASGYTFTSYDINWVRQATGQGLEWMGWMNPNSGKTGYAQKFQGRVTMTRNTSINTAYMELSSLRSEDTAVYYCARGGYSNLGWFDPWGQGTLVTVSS VL: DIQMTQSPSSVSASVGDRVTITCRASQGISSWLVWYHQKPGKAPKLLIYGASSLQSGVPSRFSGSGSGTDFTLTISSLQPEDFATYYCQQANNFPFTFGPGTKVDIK
observed_value: 76%

Shift focus to the following entry.
Entry anti-KDR monoclonal antibody 31E11 (antibody, V domains shown, Fully human mAb from XenoMouse (IgG2 or IgG4 strain); hybridoma supernatant) VH: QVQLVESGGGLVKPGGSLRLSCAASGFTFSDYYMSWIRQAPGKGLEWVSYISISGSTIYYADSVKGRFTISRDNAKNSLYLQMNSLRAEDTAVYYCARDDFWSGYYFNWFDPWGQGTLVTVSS VL: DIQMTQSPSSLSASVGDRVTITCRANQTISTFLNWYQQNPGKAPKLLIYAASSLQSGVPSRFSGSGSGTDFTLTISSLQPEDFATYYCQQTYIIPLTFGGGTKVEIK : reported % Inhibition of VEGF165-mediated pTyr Activity, Average = ?
74%
